- tested-system: mGluR 1 (Rattus norvegicus, UniProt P23385)
- Sequence (P23385 19-1199): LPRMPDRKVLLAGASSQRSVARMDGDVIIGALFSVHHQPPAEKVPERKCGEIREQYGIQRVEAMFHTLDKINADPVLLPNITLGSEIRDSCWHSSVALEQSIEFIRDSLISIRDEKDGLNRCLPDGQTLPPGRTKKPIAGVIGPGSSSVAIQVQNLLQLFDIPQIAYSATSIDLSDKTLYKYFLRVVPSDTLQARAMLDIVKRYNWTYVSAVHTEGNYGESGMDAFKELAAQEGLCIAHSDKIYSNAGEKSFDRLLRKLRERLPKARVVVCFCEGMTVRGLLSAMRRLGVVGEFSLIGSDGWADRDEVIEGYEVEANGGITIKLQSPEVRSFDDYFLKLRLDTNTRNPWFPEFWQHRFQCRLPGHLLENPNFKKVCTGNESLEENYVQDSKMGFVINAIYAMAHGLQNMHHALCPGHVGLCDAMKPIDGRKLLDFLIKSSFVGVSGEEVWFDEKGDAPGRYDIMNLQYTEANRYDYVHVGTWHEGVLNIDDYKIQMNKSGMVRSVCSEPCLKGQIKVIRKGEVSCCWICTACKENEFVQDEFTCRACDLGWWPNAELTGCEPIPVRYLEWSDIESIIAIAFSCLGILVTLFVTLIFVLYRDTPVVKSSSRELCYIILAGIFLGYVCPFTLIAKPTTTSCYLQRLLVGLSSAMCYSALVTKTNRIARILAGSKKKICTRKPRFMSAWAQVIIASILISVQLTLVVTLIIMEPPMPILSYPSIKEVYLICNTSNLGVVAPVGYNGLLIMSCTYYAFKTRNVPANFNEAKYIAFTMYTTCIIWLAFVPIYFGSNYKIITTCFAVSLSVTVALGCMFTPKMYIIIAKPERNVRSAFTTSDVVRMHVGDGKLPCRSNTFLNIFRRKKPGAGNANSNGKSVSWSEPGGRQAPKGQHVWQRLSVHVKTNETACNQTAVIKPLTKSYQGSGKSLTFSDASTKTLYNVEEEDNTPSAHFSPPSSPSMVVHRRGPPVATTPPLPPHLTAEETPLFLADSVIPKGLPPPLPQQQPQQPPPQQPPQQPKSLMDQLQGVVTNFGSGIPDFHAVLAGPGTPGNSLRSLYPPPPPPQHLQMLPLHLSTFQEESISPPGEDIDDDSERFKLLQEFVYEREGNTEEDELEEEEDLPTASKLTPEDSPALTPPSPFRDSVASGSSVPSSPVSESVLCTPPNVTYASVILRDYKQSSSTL
pIC50: −log10 of the molar value. Counter-ions that a name gives are not always drawn.
readout-kind: pIC50

molecule	tested-system	pIC50
CC(C)(C)CNC(=O)c1cn2c(nc3ccc(CN[C@@H]4CCOC4)cc32)s1 [Example 23, dihydrochloride]	mGluR 1 (Rattus norvegicus, UniProt P23385)	7.52
CN(CC1OCCO1)C(=O)c1cn2c(nc3ccc(CN[C@@H]4CCOC4)cc32)s1 [Example 34, dihydrochloride]	mGluR 1 (Rattus norvegicus, UniProt P23385)	7.43

(P) CN(CC(C)(C)C)C(=O)c1cn2c(nc3ccc(CNC4CCOCC4)cc32)s1 [Example 15, dihydrochloride]
(Q) CN(CC1OCCO1)C(=O)c1cn2c(nc3ccc(CNC[C@H]4CCCO4)cc32)s1 [Example 35, dihydrochloride]
(R) CN(CC1OCCO1)C(=O)c1cn2c(nc3ccc(CNC4COC4)cc32)s1
(S) CN(CC(C)(C)C)C(=O)c1cn2c(nc3ccc(CNCC4CCOCC4)cc32)s1 [Example 17, dihydrochloride]
## Task Rank the items in ascending order with respect to pIC50. Use the labels to give the ranking in the order requested.
## Result R, P, Q, S
